Assay: Pharmacokinetic tests in male SD rats
Format: in vivo
Conditions: rat, oral gavage (po), 10 mg/kg, plasma
I would appreciate it if you labelled entries True when AUC(0-inf) is 6000 ng·h/mL or higher, otherwise False.

molecule: CCc1cc(Nc2ncc(Cl)c(Nc3ccccc3P(C)(C)=O)n2)c(OC)cc1N1CCN(C(=O)CN2CCC(c3cc4c(cc3F)c(N3CCC(=O)NC3=O)nn4C)CC2)CC1 [TC-213]
group: True

molecule: CCc1cc(Nc2ncc(Br)c(Nc3ccccc3P3(=O)CCCC3)n2)c(OC)cc1N1CC2(CCN(C(=O)CN3CCC(c4cc5c(cc4F)c(N4CCC(=O)NC4=O)nn5C)C(F)(F)C3)CC2(F)F)C1 (stereo not drawn) [TB-010]
group: False

molecule: COc1cc(N2CCC(CN3CCN(c4ccc5c(c4)C(=O)N(C4CCC(=O)NC4=O)C5=O)CC3)CC2)c(-c2cnn(C)c2)cc1Nc1ncc(Br)c(Nc2ccc(C3CC3)cc2P(C)(C)=O)n1 (stereo not drawn) [DZL-1, reference compound]
group: True

molecule: CCc1cc(Nc2ncc(Cl)c(Nc3ccccc3P(C)(C)=O)n2)c(OC)cc1N1CCN(C(=O)CN2CCC(c3cc4c(cc3F)c(N3CCC(=O)NC3=O)nn4C)C(F)(F)C2)CC1 (stereo not drawn) [TC-157]
group: False

molecule: CCc1cc(Nc2ncc(Cl)c(Nc3ccccc3P(C)(C)=O)n2)c(OC)cc1N1CCN(CCN2CCC(c3cc4c(cc3F)c(N3CCC(=O)NC3=O)nn4C)C(F)(F)C2)CC1 (stereo not drawn) [TC-099]
group: True

molecule: CCc1cc(Nc2ncc(Cl)c(Nc3ccccc3P(C)(C)=O)n2)c(OC)cc1N1CC2(CCN(C(=O)CN3CCC(c4cc5c(cc4F)c(N4CCC(=O)NC4=O)nn5C)C(F)(F)C3)CC2)C1 (stereo not drawn) [TA-023]
group: False

molecule: CCc1cc(Nc2ncc(Br)c(Nc3ccccc3P(C)(C)=O)n2)c(OC)cc1N1CCN(C(=O)CN2CCC(c3cc4c(cc3F)c(N3CCC(=O)NC3=O)nn4C)C(F)(F)C2)CC1 (stereo not drawn) [TC-158]
group: False

molecule: CCc1cc(Nc2ncc(Cl)c(Nc3ccccc3C(=O)NC)n2)c(OC)cc1N1CCN(C(=O)CN2CCC(c3cc4c(cc3F)c(N3CCC(=O)NC3=O)nn4C)C(F)(F)C2)CC1 (stereo not drawn) [TA-003]
group: False

molecule: CCc1cc(Nc2ncc(Cl)c(Nc3ccccc3P(C)(C)=O)n2)c(OC)cc1N1CC2(CCN(C(=O)CN3CCC(c4cc5c(cc4F)c(N4CCC(=O)NC4=O)nn5C)CC3)CC2)C1 [TC-093]
group: False

###

Quick reference: IC50 of the listed items.
Tested on: Baf3-L858R-T790M - C797S (Baf3-LTC)
Assay: Cell anti-proliferation experiment (CTG)
Type: cell-based
Conditions: 72 h, class symbol
Description: H1975 has an EGFR: T790M/L858R double mutation, PC-9 has an EGFR exon 19 deletion, and HCC827 has an exon 19 deletion mutation. […] • A) Weighed approximately 2 mg the compound and calculated the required volume of DMSO according to the formula: Compound mass (mg) * Compound purity (%) / Compound molecular weight * 1000. • B) Placed the inoculated cell culture plate into an incubator and incubated for about 24 hours. […]

compound: CCc1cc(Nc2ncc(Cl)c(Nc3ccccc3P(C)(C)=O)n2)c(OC)cc1N1CCN(C(=O)CN2CCC(c3cc4c(cc3F)c(N3CCC(=O)NC3=O)nn4C)C(F)(F)C2)CC1 (stereo not drawn) [TC-157]
system_under_test: Baf3-L858R-T790M - C797S (Baf3-LTC)
IC50: < 0.01 µM

compound: CCc1cc(Nc2ncc(Cl)c(Nc3ccccc3P(C)(C)=O)n2)c(OC)cc1N1CCN(C(=O)CN2CCC(c3cc4c(cc3F)c(N3CCC(=O)NC3=O)nn4C)CC2)CC1 [TC-213]
system_under_test: Baf3-L858R-T790M - C797S (Baf3-LTC)
IC50: < 0.01 µM

compound: CCc1cc(Nc2ncc(Cl)c(Nc3ccccc3P(C)(C)=O)n2)c(OC)cc1N1CC2(CCN(C(=O)CN3CCC(c4cc5c(cc4F)c(N4CCC(=O)NC4=O)nn5C)CC3)CC2)C1 [TC-093]
system_under_test: Baf3-L858R-T790M - C797S (Baf3-LTC)
IC50: 0.01 to 0.1 µM

All values here come from patent EP4813979A1.
